assay: reversed-phase LC retention time (C18, 15 min MeOH gradient); higher = more hydrophobic / later elution; conditions: ionization mode: ESI+; ion species: [M+H]+
PARAMETER_MEASURED: reversed-phase LC retention time (min)
Provide only the numeric value, understood in min.

Could you tell me which reversed-phase LC retention time is on file for `CC1(C)CON(Cc2ccccc2Cl)C1=O` ? 13.5

Subsequent entry: `Cc1ccccc1N=C(N)Nc1ccccc1C` 9.72

Continue with CC(C)NCC(O)COc1ccc(CC(N)=O)cc1 (centres undefined) 6.24

What about NC(=O)N1c2ccccc2C(O)C(O)c2ccccc21 (centres undefined) [10,11-Dihydro-10,11-dihydroxycarbamazepine] ? 10.4

Same lookup for C#CC(C)(C)NC(=O)c1cc(Cl)cc(Cl)c1 [Propyzamide] , please. 14.2

Can you handle `CC(C)Nc1nc(N)nc(Cl)n1` next? 9.74

Could you do the same for `CC1(C)CC(NC(=O)c2cccc(C(=O)NC3CC(C)(C)NC(C)(C)C3)c2)CC(C)(C)N1` , please? 8.03

Consider next the compound `Cc1nccc2c1[nH]c1ccccc12` in the same way. 8.86

Now this one: CC(C)(C)C(=O)C(Oc1ccc(Cl)cc1)n1ccnc1 (centres undefined) 13.1
